target: B-Raf (Homo sapiens, UniProt P15056); test: Fluorescence anisotropy kinase binding assay (Assay 1)
Sequence (P15056 whole entry): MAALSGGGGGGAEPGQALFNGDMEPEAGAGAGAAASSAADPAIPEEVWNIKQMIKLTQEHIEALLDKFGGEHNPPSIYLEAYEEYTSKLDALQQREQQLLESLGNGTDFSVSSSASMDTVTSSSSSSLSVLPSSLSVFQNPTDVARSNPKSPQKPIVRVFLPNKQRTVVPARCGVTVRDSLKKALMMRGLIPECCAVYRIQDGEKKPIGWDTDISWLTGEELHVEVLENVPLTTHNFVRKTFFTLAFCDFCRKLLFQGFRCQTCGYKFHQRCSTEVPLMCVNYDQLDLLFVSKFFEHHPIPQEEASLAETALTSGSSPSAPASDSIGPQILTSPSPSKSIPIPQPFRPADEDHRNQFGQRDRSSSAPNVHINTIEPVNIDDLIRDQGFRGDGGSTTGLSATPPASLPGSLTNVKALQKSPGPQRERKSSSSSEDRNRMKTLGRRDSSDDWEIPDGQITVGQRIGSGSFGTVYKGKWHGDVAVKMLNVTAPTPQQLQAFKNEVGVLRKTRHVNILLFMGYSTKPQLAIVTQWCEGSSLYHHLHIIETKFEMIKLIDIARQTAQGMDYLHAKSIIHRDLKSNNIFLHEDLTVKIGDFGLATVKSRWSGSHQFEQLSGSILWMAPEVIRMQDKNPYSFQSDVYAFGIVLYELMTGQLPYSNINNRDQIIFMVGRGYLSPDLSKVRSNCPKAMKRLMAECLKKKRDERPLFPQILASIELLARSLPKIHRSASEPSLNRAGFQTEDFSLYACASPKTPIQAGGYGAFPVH
Property Label: Kd (nM)
Give your result in nM as a bare value.

Recorded Kd for O=C(c1cc(-c2ccc3c(c2)CCC3=NO)c(-c2ccncc2)o1)N1CCC(N2CCCC2)CC1 [Example 20] , please?
0.4

----------
test system: human colon carcinoma (Colo 201) cells; experiment: XTT 72 hr growth inhibition (Assay 3), Colo201; format: cell-based; conditions: Colorectal cancer, B-Raf ND, Ras ND, Assay 3, 72 hr
Property Label: IC50 (nM)
Give your result in nM as a bare value.

Recorded IC50 for O=C(c1cc(-c2ccc3c(c2)CCC3=NO)c(-c2ccncc2)o1)N1CCC(N2CCCC2)CC1 [Example 20] , please?
800
